ASSAY_PROTOCOL: Biodistribution of 177Lu-labeled αMSH analogues in mice bearing B16F10 mouse melanoma
Format: in vivo, C57BL/6J mice
CONDITION: mouse, tumour/blood, iv, total radioactivity; 4 h p.i., C57BL/6J mice, B16F10 melanoma; read-out: Tumour/blood
Answer each item with its documented tissue to tissue ratio at 4 h.
Enter the number alone.

# tissue to tissue ratio at 4 h lookup, item CCCC[C@H](NC(=O)CN1CCC(NC(=O)[C@H](CCCCNC(=O)CN2CCN(CC(=O)O)CCN(CC(=O)O)CCN(CC(=O)O)CC2)NC(=O)[C@H](CCC(=O)O)NC(=O)CCCc2ccc(I)cc2)CC1)C(=O)N[C@H]1CC(=O)NCCCC[C@@H](C(N)=O)NC(=O)[C@H](Cc2c[nH]c3ccccc23)NC(=O)[C@H](CCCNC(=N)N)NC(=O)[C@@H](Cc2ccccc2)NC(=O)[C@H](Cc2c[nH]cn2)NC1=O [^177Lu-labeled CCZ01082, metal not drawn]
8.59

Recorded tissue to tissue ratio at 4 h for CCCC[C@H](NC(=O)CN1CCC(NC(=O)[C@H](CCCCNC(=O)CN2CCN(CC(=O)O)CCN(CC(=O)O)CCN(CC(=O)O)CC2)NC(=O)[C@H](CCC(=O)O)NC(=O)CCCc2ccc(I)cc2)CC1)C(=O)N[C@H]1CC(=O)NCCCC[C@@H](C(N)=O)N(C)C(=O)[C@H](Cc2c[nH]c3ccccc23)NC(=O)[C@H](CCCNC(=N)N)N(C)C(=O)[C@@H](Cc2ccccc2)NC(=O)[C@H](Cc2c[nH]cn2)NC1=O [^177Lu-labeled CCZ01118, metal not drawn] , please?
24.3

Give the measured tissue to tissue ratio at 4 h of CCCC[C@H](NC(=O)CN1CCC(NC(=O)[C@H](CCCCNC(=O)CN2CCN(CC(=O)O)CCN(CC(=O)O)CCN(CC(=O)O)CC2)NC(=O)[C@H](CCC(=O)O)NC(=O)CCCc2ccc(I)cc2)CC1)C(=O)N[C@H]1CC(=O)NCCCC[C@@H](C(N)=O)N(C)C(=O)[C@H](Cc2c[nH]c3ccccc23)N(C)C(=O)[C@H](CCCNC(=N)N)N(C)C(=O)[C@@H](Cc2ccccc2)NC(=O)[C@H](Cc2c[nH]cn2)N(C)C1=O [^177Lu-labeled CCZ01088, metal not drawn] .
7.97

Find the recorded tissue to tissue ratio at 4 h belonging to CCCC[C@H](NC(=O)CN1CCC(NC(=O)CN2CCN(CC(=O)O)CCN(CC(=O)O)CCN(CC(=O)O)CC2)CC1)C(=O)N[C@H]1CC(=O)NCCCC[C@@H](C(N)=O)N(C)C(=O)[C@H](Cc2c[nH]c3ccccc23)NC(=O)[C@H](CCCNC(=N)N)N(C)C(=O)[C@@H](Cc2ccccc2)NC(=O)[C@H](Cc2c[nH]cn2)NC1=O [^177Lu-labeled CCZ01106, metal not drawn] and report it.
414

----------
ASSAY_PROTOCOL: Biodistribution of 68Ga-labeled peptide in mice bearing B16F10 mouse melanoma
Assay type: in vivo, C57BL/6J mice
CONDITION: bone, iv, total radioactivity, 1 h p.i. unblocked, C57BL/6J mice, B16F10 melanoma, read-out: Biodistribution, Bone
ASSAY_METRIC: tissue uptake at 1 h
Write the quantity with the unit trailing the number.

So what's the measured tissue uptake at 1 h for this one? CCCC[C@H](NC(=O)CN1CCC(NC(=O)CN2CCN(CC(=O)O)CCN(CC(=O)O)CCN(CC(=O)O)CC2)CC1)C(=O)N[C@H]1CC(=O)NCCCC[C@@H](C(N)=O)N(C)C(=O)[C@H](Cc2c[nH]c3ccccc23)N(C)C(=O)[C@H](CCCNC(=N)N)N(C)C(=O)[C@@H](Cc2ccccc2)NC(=O)[C@H](Cc2c[nH]cn2)N(C)C1=O [^68Ga-labeled CCZ01099, metal not drawn]
0.32 %ID/g

Values were extracted from patent US11395857B2.
